Test system: THP-1
Experiment: Immunostimulatory activity in human THP1 cells assessed as increase in IL-10 production at 20 ug/ml after 6 to 72 hrs by immunoassay
Assay type: functional, cell-based
Calls of active or inactive are those of the source. The calls are words filed in the database; no cut-off is given here.
PROPERTY_LABEL: Activity

| COMPOUND | MEASURED_ON | PROPERTY_LABEL | RESULT |
| --- | --- | --- | --- |
| CCCCCCCCCCCCCC(=O)O[C@H](CCCCCCCCCCC)CC(=O)O[C@@H]1[C@@H](NC(=O)C[C@@H](CCCCCCCCCCC)OC(=O)CCCCCCCCCCC)[C@H](OC[C@H]2OC(O)[C@H](NC(=O)C[C@H](O)CCCCCCCCCCC)[C@@H](OC(=O)C[C@H](O)CCCCCCCCCCC)[C@@H]2O)O[C@H](C(=O)NCCCCCCN=[N+]=[N-])[C@H]1OP(=O)(O)O (some centres undefined) | THP-1 | Activity | Active |
| CCCCCCCCCCCCCC(=O)O[C@H](CCCCCCCCCCC)CC(=O)O[C@@H]1[C@@H](NC(=O)C[C@@H](CCCCCCCCCCC)OC(=O)CCCCCCCCCCC)[C@H](OC[C@H]2OC(O)[C@H](NC(=O)C[C@H](O)CCCCCCCCCCC)[C@@H](OC(=O)C[C@H](O)CCCCCCCCCCC)[C@@H]2O)O[C@H](C(=O)NCCCCCSCCCO[C@H]2O[C@H](CO)[C@H](O)[C@H](O[C@@H]3O[C@H](CO)[C@H](O)[C@H](O)[C@H]3O)[C@H]2NC(C)=O)[C@H]1OP(=O)(O)O (some centres undefined) | THP-1 | Activity | Active |
| C#CCCCCNC(=O)[C@H]1O[C@@H](OC[C@H]2OC(O)[C@H](NC(=O)C[C@H](O)CCCCCCCCCCC)[C@@H](OC(=O)C[C@H](O)CCCCCCCCCCC)[C@@H]2O)[C@H](NC(=O)C[C@@H](CCCCCCCCCCC)OC(=O)CCCCCCCCCCC)[C@@H](OC(=O)C[C@@H](CCCCCCCCCCC)OC(=O)CCCCCCCCCCCCC)[C@@H]1OP(=O)(O)O (some centres undefined) | THP-1 | Activity | Active |
| CCCCCCCCCCCCCC(=O)O[C@H](CCCCCCCCCCC)CC(=O)O[C@@H]1[C@@H](NC(=O)C[C@@H](CCCCCCCCCCC)OC(=O)CCCCCCCCCCC)[C@H](OC[C@H]2OC(O)[C@H](NC(=O)C[C@H](O)CCCCCCCCCCC)[C@@H](OC(=O)C[C@H](O)CCCCCCCCCCC)[C@@H]2O)O[C@H](C(=O)NCCCCCSCCCO[C@H]2O[C@H](CO)[C@H](O)[C@H](O)[C@H]2NC(C)=O)[C@H]1OP(=O)(O)O (some centres undefined) | THP-1 | Activity | Active |
